Source listed as a melting point compilation (Tetko et al.; mined from patent text by program, amines drawn as free bases though some values may be those of a salt).

quantityMeasured: melting point

Examples from the recorded data:
compound	melting point
CC1=C(C)C(=O)C(C(CCCCCC(=O)NCC(=O)O)c2ccccc2)=C(C)C1=O (stereo not given)	162 to 164 °C
O=C(C=Cc1ccncc1)c1ccc(F)cc1	157 °C
Cn1cc(-c2cc3cccnc3[nH]2)c2cc(C(N)=O)ccc21	330 to 332 °C
O=C1CCC(N2C(=O)c3cccc(OCc4ccccc4)c3C2=O)C(=O)N1 (stereo not given)	238 to 240 °C
Cc1ccc(C(=O)c2ccc(Cc3ccc(NS(C)(=O)=O)cc3C#N)n2C)cc1	171 to 172 °C
Cc1cc([N+](=O)[O-])ccc1NC(=O)c1cc(C(C)(C)C)ccc1O	202 to 204 °C

[ask] Please give the measured melting point for this compound: CS(=O)(=O)N(Cc1cccnc1)c1ccccc1OCC(F)(F)F
[reply] 80 to 84 °C

[ask] Please give the measured melting point for this compound: Cc1ccc([N+](=O)[O-])c(C=C2NC(=O)NC2=O)c1C
[reply] 293 to 295 °C

[ask] Please give the measured melting point for this compound: COc1ccc(-c2cccc3c2/C(=C/c2ccc[nH]2)C(=O)N3)cc1
[reply] 222 to 223 °C

[ask] Please give the measured melting point for this compound: Cc1ccc(S(=O)(=O)OCC2Cc3cccc(-c4ccccc4Cl)c3O2)cc1 (stereo not given)
[reply] 100 to 103 °C

[ask] Please give the measured melting point for this compound: COc1nc(C)nc(NC(=O)NS(=O)(=O)c2ccccc2CCC(F)(F)F)n1
[reply] 157 to 158 °C

[ask] Please give the measured melting point for this compound: C#Cc1ccc(OC)c(OC)c1
[reply] 71 to 72 °C

[ask] Please give the measured melting point for this compound: Cc1cccc2nc(CSc3ncnc4[nH]cnc34)n(-c3ccccc3Cl)c(=O)c12
[reply] 228 to 230 °C

[ask] Please give the measured melting point for this compound: COc1ccc(C(C#N)=NO)cc1OC
[reply] 183 to 191 °C

###

Measured melting point, listed per entry.
// note: answer is a bare numeric in °C

molecule	melting point, °C
OC(CSC(=S)Nc1ccccn1)c1ccccc1 (stereo not given)	82

[ask] Please give the measured melting point for this molecule: COc1c(N2CCC(N)C(C)(C)C2)c(F)c(N)c2c(=O)c(C(=O)O)cn(C3CC3)c12 (stereo not given)
[reply] 205

###

Measured melting point, listed per entry.

Examples from the recorded data:
molecule	quantityMeasured	reading
NC(=O)c1ccc(C(c2ccccc2)(c2ccccc2)c2ccccc2)cn1	melting point	239 to 240 °C
C(=Cc1ccc(-c2noc3ccccc23)cc1)c1ccc(-c2nc(-c3ccccc3)no2)cc1	melting point	216 to 217 °C
CNCC1CCN(c2ccc(Cl)cc2NC(=O)c2csc3cncnc23)CC1	melting point	190 to 193 °C
CCOc1cc(Cc2ccc(Cl)cc2Cl)nc(-c2ccc3c(n2)CCCC3)n1	melting point	98 to 100 °C
Fc1ccc(F)c(CN2CCNc3ncc(-c4ccc(N5CCOCC5)nc4)cc32)c1	melting point	206 to 207 °C

[ask] Please give the measured melting point for this molecule: COC(=O)NNC(=S)Cc1ccc(C(C)(C)C)cc1
[reply] 93.5 to 94 °C

[ask] Please give the measured melting point for this molecule: c1ccc2c(c1)Cc1cccnc1O2
[reply] 87 to 88 °C

[ask] Please give the measured melting point for this molecule: COc1ccc(-c2csc(Nc3ccc(C(F)(F)F)cn3)n2)cc1OC
[reply] 244 to 247 °C

[ask] Please give the measured melting point for this molecule: CC(=Cc1ccc(Cl)cc1Cl)[N+](=O)[O-]
[reply] 75 °C

[ask] Please give the measured melting point for this molecule: CS(=O)(=O)c1ccc(-n2nc(C(F)(F)F)cc2-c2nc3cc(F)ccc3s2)cc1
[reply] 204 to 205 °C

[ask] Please give the measured melting point for this molecule: CC(=C1SC(=O)NC1=O)c1ccc(NCCOc2c(-c3ccc(F)cc3)n(C)c3ccccc3c2=O)cc1
[reply] 130 to 132 °C

[ask] Please give the measured melting point for this molecule: CC(C)c1ccc(S(=O)(=O)n2c(Cc3ccc(C(=O)O)cc3)cc3cc(C(F)(F)F)ccc32)cc1
[reply] 227 °C

[ask] Please give the measured melting point for this molecule: O=C1C(Cl)=C(CC2CCCC(C(F)(F)F)C2)C(=O)c2ccccc21 (configuration not stated)
[reply] 104 °C

[ask] Please give the measured melting point for this molecule: S=c1[nH]ccn1OCc1cccnc1
[reply] 128 to 129 °C

[ask] Please give the measured melting point for this molecule: O=CC(=Cc1ccc(OCc2ccccc2)cc1)C(C=O)=Cc1ccc(OCc2ccccc2)cc1
[reply] 119 to 120 °C

[ask] Please give the measured melting point for this molecule: CCCc1c(OCc2cccn3c(=O)c(CC(=O)OCC)cnc23)ccc(C(C)=O)c1O
[reply] 134 to 135 °C

[ask] Please give the measured melting point for this molecule: Cc1c(OCc2ccccn2)nn2c(-c3ccccc3)nnc2c1C
[reply] 185 °C

[ask] Please give the measured melting point for this molecule: COc1ncccc1-c1nc2c(N[C@H]3[C@@H](C(N)=O)[C@@H]4C=C[C@H]3C4)c(Br)cnc2[nH]1
[reply] 201 °C

[ask] Please give the measured melting point for this molecule: Clc1nc(N2CCOCC2)nc(N2CCOCC2)n1
[reply] 174 °C

[ask] Please give the measured melting point for this molecule: CC(C)(C)c1ccc(C(=O)NCc2ccc3c(c2)C(=O)N(C2CCC(=O)NC2=O)C3=O)cc1 (configuration not stated)
[reply] 164 to 166 °C

[ask] Please give the measured melting point for this molecule: CC(C)c1cc(-c2c3ccccc3c(Br)c3sc4ccccc4c23)cc(C(C)C)c1O[C@H](C)C(=O)O
[reply] 214 to 215 °C

###

Measured melting point, listed per entry.

[ask] Please give the measured melting point for this compound: COc1ccc(C(=O)C(N=C=S)c2ccc(OC)cc2)cc1 (stereo not drawn)
[reply] 155 °C

[ask] Please give the measured melting point for this compound: O=C(O)CNC1Cc2ccccc2C1
[reply] 211 to 214 °C

###

Measured melting point, listed per entry.

Examples from the recorded data:
compound	melting point
CC1(C)CC2(CC(C)(C)c3ccc(Oc4cccc([N+](=O)[O-])c4)cc32)c2cc(Oc3cccc([N+](=O)[O-])c3)ccc21	174 to 175 °C
OCCCC#Cc1ccc2ccccc2c1	37 to 38 °C
O=C(N1CCN(c2ccccc2)CC1)N1CCc2ccccc2CO1	123 to 125 °C
C[C@H]1CNCC[C@@]12OC(=O)c1ccccc12 (racemic)	131 °C
CCOC1CN(Cc2ccccc2OC)Cc2cc(OC)c(O)cc21 (centres undefined)	101 to 102 °C

[ask] Please give the measured melting point for this compound: CN(C)C=Nc1[nH]nc(NCCNC(=O)OC(C)(C)C)c1C#N
[reply] 158 to 160 °C

[ask] Please give the measured melting point for this compound: N#Cc1cc(Br)cc(C(F)(F)F)n1
[reply] 88.5 °C

[ask] Please give the measured melting point for this compound: CCCCC[C@H]1CC[C@H](/C=C/COc2ccc(C=O)cc2)CC1
[reply] 54 to 55 °C

[ask] Please give the measured melting point for this compound: COC(=O)c1cc(C(=O)NCC(C)(C)C)ccc1-c1cc(C(=O)OC(C)(C)C)cc(F)c1C
[reply] 68 to 74 °C

[ask] Please give the measured melting point for this compound: OCC(O)CN1CCN(C(c2ccccc2)c2ccccc2)CC1 (centres undefined)
[reply] 125 to 126 °C

[ask] Please give the measured melting point for this compound: CC(C)(C)OC(=O)N1CCC(c2cn(-c3ccc(F)cc3)c3ccc(C#N)cc23)CC1
[reply] 155 °C

[ask] Please give the measured melting point for this compound: Cc1ccc(NC(=O)c2ccc(C(=O)Nc3ccccc3NC(=O)OC(C)(C)C)nc2)cc1Nc1nccc(-c2cccnc2)n1
[reply] 186 to 187 °C

[ask] Please give the measured melting point for this compound: O=C(O)c1ccc(/C=C/C(=O)c2ccc(-c3cccs3)cc2)cc1
[reply] 260 to 265 °C

[ask] Please give the measured melting point for this compound: CC(C)C[C@@H]1OC(O)[C@H](Cc2ccccc2)NC1=O (some centres undefined)
[reply] 84 to 84.5 °C

###

Measured melting point, listed per entry.

Examples from the recorded data:
compound	melting point
Nc1nc2ccccc2c2c1nc(CCO)n2CCCNC(=O)c1cc2ccccc2cn1	245 to 246 °C
C=CCN1CCc2cc(OC)c(O)c3c2C1Cc1cc(O)c(OC)cc1-3 (single isomer, unassigned; (+))	161 to 171 °C
CN1CCC(CCCC2CCN(CC(=O)N3c4ccccc4C(=O)Nc4cccnc43)CC2)CC1	192 to 194 °C
CC(C)(C)c1ccc2occ(N)c(=S)c2c1	168 °C
CC(C)(C)[Si](C)(C)Oc1ccc2cc3c(cc2c1)C(=O)c1cc2ccc(O[Si](C)(C)C(C)(C)C)cc2cc1C3=O	< 270 °C
CCCc1nn(-c2ccc(C(F)(F)F)cn2)cc1CCCOc1ccc(CCC(=O)O)c(C)c1	124 to 126 °C
CCN(CC)C(=O)c1ccc(C)c(-c2nc(NCCNC(C)C)nc3c2CNC(=O)N3c2c(F)cccc2F)c1	89 to 91 °C
COCCN1CCN(c2c(F)cc(N3C[C@H](CNC(C)=O)OC3=O)cc2F)CC1	162 to 164 °C
CC(C)(C)c1ccc(S(=O)(=O)NCCCCOc2ccc(-n3ccnc3)cc2)cc1	138 to 140 °C
CCN(C(=O)NC)c1ccc(Cl)nc1	135 to 136 °C

[ask] Please give the measured melting point for this compound: Cc1ccc(-c2ccc3c(c2)C=C(C(=O)N2CCC(N)CC2)CCO3)cc1
[reply] 123 to 127 °C

[ask] Please give the measured melting point for this compound: COc1ccc2c(c1)[C@@H]1c3ccccc3N[C@@H]1C2 (relative stereo)
[reply] 129 to 130 °C
